Values compiled from ChEMBL document CHEMBL4346738.

Listed below: IC50 values for each entry.
Target: Human immunodeficiency virus type 1 reverse transcriptase (Human immunodeficiency virus 1)
Assay: Inhibition of HIV1 Reverse transcriptase polymerase assessed as decrease in digoxigenin and biotin-dUTP incorporation into DNA using poly(A)/oligo(dT)15 as template/primer by ELISA

CC(C)Oc1ccc2cccnc2c1-c1cccc2ccccc12 ... > 100 µM

For the next question, use this compound.
The recorded IC50 for CC(C)Oc1ccc2cccnc2c1-c1cccc2cccnc12 is > 100 µM

---

Test: Cytotoxicity against human LC5 cells assessed as reduction in cell viability incubated for 48 hrs by resazurin dye-based assay
Settings: LC5 cells
The compounds listed here are annotated with their CC50 at 48 h.
Write the value in µM as a bare number.

Known results for compounds:
CCN(CC)C(=O)Oc1ccc2ccccc2c1-c1cccc2cccnc12 ... 71.4
CC(C)Oc1ccc2ccccc2c1-c1cccc2cccnc12 ... 145
CC(C)Oc1ccc2cccnc2c1-c1cccc2ccccc12 ... 86.5
CCN(CC)C(=O)Oc1ccc2cccnc2c1-c1cccc2cccnc12 ... 383

Record CCN(CC)C(=O)Oc1ccc2cccnc2c1-c1cccc2ccccc12 . Reported CC50 at 48 h: 51.9

---

Target: Human immunodeficiency virus type 1 reverse transcriptase (Human immunodeficiency virus 1, UniProt Q72547)
Test: Binding affinity to recombinant wild-type full length HIV1 reverse transcriptase p66/p51 expressed in Escherichia coli by biolayer interferometry
readoutKind: Kd

Entry CC(C)Oc1ccc2cccnc2c1-c1cccc2ccccc12 — recorded Kd = 38 µM

---

Consider the following molecules and their measured pIC50 readings.
Target: Human immunodeficiency virus type 1 reverse transcriptase (Human immunodeficiency virus 1, UniProt Q72547)
Experiment: Inhibition of HIV1 reverse transcriptase RNase H using 18-nucleotide 3'-fluorescein-labeled RNA/5'-dabcyl-labeled DNA hybrid as substrate measured after 1 hr by FRET based assay
# log scale: pIC50 equals minus log10 of the concentration in mol/L

NC(=O)c1c(N)sc2c1CCCCC2 ... 4.55

--- query ---
Per the records, this molecule ( CC(C)Oc1ccc2cccnc2c1-c1cccc2ccccc12 ) has pIC50 equal to 4.33

---

Experiment: Selectivity index, ratio of CC50 for human LC5 cells to IC50 for antiviral activity against HIV1 LAI infected in human LC5 cells
Assay type: toxicity, cell-based
Conditions: read-out: Ratio CC50/IC50
// reported selectivity ratio per item
# print the numeric value only

Solved entries:
CCN(CC)C(=O)Oc1ccc2ccccc2c1-c1cccc2cccnc12 ... 1.4
CCN(CC)C(=O)Oc1ccc2cccnc2c1-c1cccc2ccccc12 ... 2.2
CC(C)Oc1ccc2ccccc2c1-c1cccc2cccnc12 ... 3.6

# input for lookup
Item: CC(C)Oc1ccc2cccnc2c1-c1cccc2ccccc12 | selectivity ratio: 11.4
